The following molecules are listed with their measured IC50 values.
# Assayed System: UniProtKB P02829
# Experiment Description: Hsp90 ATPase assay (malachite green)
# Format: biochemical

// known answers, use as guide
1. CCNC(=O)c1noc(-c2cc(C(C)C)c(O)cc2O)c1-c1ncon1 :: 500 to 1000 nM
2. CCC(=O)NCc1noc(-c2cc(C(C)C)c(O)cc2O)c1-c1ccsc1 :: > 1000 nM
3. CCNC(=O)c1noc(-c2cc(C(C)C)c(O)cc2O)c1-c1ccc(CN2CCOCC2)s1 :: < 500 nM

# ---- query molecule ----
Exercise: Tell me its IC50 given `CCNC(=O)c1noc(-c2cc(C(C)C)c(O)cc2O)c1-c1noc(C(=O)N2CCCC2)n1` as the entry.
Key: 500 to 1000 nM

====

Recorded IC50 by entry
# Assayed System: yeast HSP90 (Saccharomyces cerevisiae, UniProt P02829)
# Sequence (P02829 whole entry): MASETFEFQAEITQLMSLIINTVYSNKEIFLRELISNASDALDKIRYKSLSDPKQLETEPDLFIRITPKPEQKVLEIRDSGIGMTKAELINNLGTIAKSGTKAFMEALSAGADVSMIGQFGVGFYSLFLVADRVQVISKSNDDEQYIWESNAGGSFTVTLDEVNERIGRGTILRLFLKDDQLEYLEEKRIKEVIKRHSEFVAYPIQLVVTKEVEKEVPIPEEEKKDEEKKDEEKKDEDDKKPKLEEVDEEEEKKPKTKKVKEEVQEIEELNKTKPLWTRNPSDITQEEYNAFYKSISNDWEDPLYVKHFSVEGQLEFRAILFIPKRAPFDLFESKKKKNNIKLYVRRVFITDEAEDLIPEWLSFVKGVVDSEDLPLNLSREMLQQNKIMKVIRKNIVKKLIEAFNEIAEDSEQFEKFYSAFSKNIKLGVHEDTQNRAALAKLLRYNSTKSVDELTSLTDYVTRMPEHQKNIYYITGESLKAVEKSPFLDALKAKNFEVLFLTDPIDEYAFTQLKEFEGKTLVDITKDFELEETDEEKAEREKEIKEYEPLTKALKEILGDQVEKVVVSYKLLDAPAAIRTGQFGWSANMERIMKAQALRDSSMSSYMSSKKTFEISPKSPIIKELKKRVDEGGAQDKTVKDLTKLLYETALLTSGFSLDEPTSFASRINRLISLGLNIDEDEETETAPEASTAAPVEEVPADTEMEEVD
# Experiment Description: Hsp90 ATPase assay (malachite green)
# Format: biochemical

1) CCNC(=O)c1noc(-c2cc(C(C)C)c(O)cc2O)c1-c1noc(CO)n1 [Compound I-81] :: 500 to 1000 nM

Exercise: Look up and state reported IC50 for CCNC(=O)c1noc(-c2cc(Cl)c(O)cc2O)c1-c1cc(C(=O)OCC)no1 [Compound I-25]
Key: 500 to 1000 nM

Exercise: State, in one line, measured IC50 of CCCN(CCC)Cc1cc(-c2c(C(=O)NCC)noc2-c2cc(C(C)C)c(O)cc2O)on1 [Compound I-45]
Key: < 500 nM

Exercise: Name the recorded IC50 of the compound listed here: CCNC(=O)c1noc(-c2cc(C(C)C)c(O)cc2O)c1-c1cc(CN2CCSCC2)no1 [Compound I-47]
Key: < 500 nM

Exercise: Consider the compound CCNC(=O)c1noc(-c2cc(C(C)C)c(O)cc2O)c1-c1cc[nH]n1 [Compound I-96] and give its recorded IC50.
Key: 500 to 1000 nM

Exercise: Look up IC50 of CCNC(=O)c1noc(-c2cc(C(C)C)c(O)cc2O)c1-c1noc(-c2ccccc2)n1 [Compound I-61] and report it.
Key: < 500 nM

Exercise: Answer with the recorded IC50 of CCNC(=O)c1noc(-c2cc(C(C)C)c(O)cc2O)c1-c1cc(CO)no1 [Compound I-17] only.
Key: < 500 nM

Exercise: Retrieve IC50 measured for CCNC(=O)c1noc(-c2cc(C(C)C)c(O)cc2O)c1-c1cc(C(=O)NC)no1 [Compound I-56] and print it.
Key: < 500 nM

====

List of IC50 values.
# Assayed System: yeast HSP90 (Saccharomyces cerevisiae, UniProt P02829)
# Experiment Description: Hsp90 ATPase assay (malachite green)
# Type: biochemical
# Description: For present invention, the ATPase activity of yeast HSP90 was measured using malachite green assay. Formula I compounds for primary antitumoral activity were treated in human colorectal cancer cells (HCT116) showing increased expression levels of HSP90 client protein and cotoxicity IC50 values was measured as a result.

Answered cases to consult:
1) CCNC(=O)c1noc(-c2cc(C(C)C)c(O)cc2O)c1-c1noc(C(O)CCl)n1 (centres unmarked) [Compound I-91] :: 500 to 1000 nM
2) CCNC(=O)c1noc(-c2cc(C(C)C)c(O)cc2O)c1-c1ccn(C)n1 [Compound I-97] :: 500 to 1000 nM
3) CCNC(=O)c1noc(-c2cc(C(C)C)c(O)cc2O)c1-c1cnn(C)c1 [Compound I-102] :: < 500 nM
4) CCNC(=O)C1=NOC(c2c(C(=O)NCC)noc2-c2cc(C(C)C)c(O)cc2O)C1 (centres unmarked) [Compound I-8] :: 500 to 1000 nM
5) CCNC(=O)c1noc(-c2cc(C(C)C)c(O)cc2O)c1-c1cc(C)no1 [Compound I-37] :: < 500 nM

Exercise: Please tell me the measured IC50 for CCNC(=O)c1noc(-c2cc(C(C)C)c(O)cc2O)c1-c1noc(COC)n1 [Compound I-75] ; system: yeast HSP90 (Saccharomyces cerevisiae, UniProt P02829).
Key: < 500 nM

Exercise: Tell me IC50 of CCNC(=O)c1noc(-c2cc(C(C)C)c(O)cc2O)c1-c1nnnn1CC [Compound I-13] when tested on yeast HSP90 (Saccharomyces cerevisiae, UniProt P02829).
Key: < 500 nM

Exercise: GET IC50 | system: yeast HSP90 (Saccharomyces cerevisiae, UniProt P02829) | item: CCNCc1cc(-c2c(C(=O)NCC)noc2-c2cc(C(C)C)c(O)cc2O)on1 [Compound I-27]
Key: < 500 nM
